The entries below are paired with their reported residual activity.
# Tested on: LCK (mouse)
# Test Protocol: radiometric filter-binding kinase assay
# Experimental Setup: compound 10.0 µM; accession and sequence are those of the human protein
# unit: % | format: bare number

Example molecules with recorded residual activity:
## Input Look up residual activity for this molecule: Oc1ccc2ccccc2c1SSc1c(O)ccc2ccccc12
## Output 90

## Input Look up residual activity for this molecule: COC(=O)/C=C/C(=O)OC
## Output 74

## Input Look up residual activity for this molecule: Cc1nc(-c2ccc(OCC(C)C)c(C#N)c2)sc1C(=O)O
## Output 102

## Input Look up residual activity for this molecule: NC(=O)c1ccc(-c2ccc(Oc3cncc4sc(-c5nn[nH]n5)cc34)cc2)cc1
## Output 99

## Input Look up residual activity for this molecule: NC1(c2ccc(-c3nc4ccn5c(=O)[nH]nc5c4cc3-c3ccccc3)cc2)CCC1
## Output 80

Continuing:
## Input Look up residual activity for this molecule: COc1cc2ncn(-c3cc(OCc4ccccc4S(C)(=O)=O)c(C#N)s3)c2cc1OC
## Output 33

## Input Look up residual activity for this molecule: CC1=C(CO)C(=O)O[C@@H]([C@@H](C)[C@H]2CC[C@H]3[C@@H]4C[C@H]5O[C@]56[C@@H](O)C=CC(=O)[C@]6(C)C4CC[C@]23C)C1 (some centres not stated)
## Output 129

## Input Look up residual activity for this molecule: NC(=O)c1cc(-c2ccnc(NC3CCCCC3)c2)nc(N2CCNCC2)c1
## Output 9

## Input Look up residual activity for this molecule: CCNc1nc(Nc2cc(F)c(C(=O)N3CCOCC3)cc2OC)ncc1C(F)(F)F
## Output 101

## Input Look up residual activity for this molecule: O=C(NOCC(O)CO)c1ccc(F)c(F)c1Nc1ccc(I)cc1Cl (configuration not stated)
## Output 104

## Input Look up residual activity for this molecule: COc1ccc2c(c1)c1c3c(c4c5ccccc5n(C)c4c1n2CC(O)CN(C)C)C(=O)NC3=O (configuration not stated)
## Output 41

## Input Look up residual activity for this molecule: CN1C(=O)[C@@H](Cc2c[nH]c3ccccc23)NC1=S
## Output 111

## Input Look up residual activity for this molecule: CCn1c(-c2nonc2N)nc2cncc(CNC3CCNCC3)c21
## Output 94

## Input Look up residual activity for this molecule: O=C(Nc1ccccc1-c1cn2c(CN3CCNCC3)csc2n1)c1cnc2ccccc2n1
## Output 58

## Input Look up residual activity for this molecule: O=C1Nc2nc(-c3c(O)cccc3OCC3CC3)cc(C3CCCNC3)c2CO1 (configuration not stated)
## Output 74

## Input Look up residual activity for this molecule: CC(C)(C#N)c1ccc(N2C(=O)OCc3cnc4ccc(-c5cnc6ccccc6c5)cc4c32)cc1
## Output 98

## Input Look up residual activity for this molecule: N#Cc1c(C2CCNCC2)cc(-c2c(O)cccc2OCC2CC2)nc1N
## Output 33

###

The entries below are paired with their reported residual activity.
# Tested On: UniProtKB Q9P1W9
# Sequence (Q9P1W9 whole entry, looked up): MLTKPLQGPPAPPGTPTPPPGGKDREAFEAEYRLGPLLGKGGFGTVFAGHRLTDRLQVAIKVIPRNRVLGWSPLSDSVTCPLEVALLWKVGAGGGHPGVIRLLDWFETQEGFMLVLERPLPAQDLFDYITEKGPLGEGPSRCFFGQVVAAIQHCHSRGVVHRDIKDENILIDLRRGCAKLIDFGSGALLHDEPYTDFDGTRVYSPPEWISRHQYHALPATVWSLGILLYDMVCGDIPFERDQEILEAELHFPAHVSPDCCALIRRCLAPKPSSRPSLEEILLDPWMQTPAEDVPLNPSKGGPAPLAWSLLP
# Test Protocol: radiometric filter-binding kinase assay
# Experimental Setup: compound 10.0 µM
# unit: % | format: bare number

Example molecules with recorded residual activity:
## Input Hi! What's the reported residual activity for NC(=O)c1c(NC(=O)C2CC2)sc2c1CCCC2 on UniProtKB Q9P1W9?
## Output 92

## Input Hi! What's the reported residual activity for O=S(=O)(c1ccc(F)c2nonc12)N1CCN(c2ncc(C(F)(F)F)cc2Cl)CC1 on UniProtKB Q9P1W9?
## Output 97

## Input Hi! What's the reported residual activity for O=C1NC(=S)N[C@@H]1Cc1c[nH]c2ccccc12 on UniProtKB Q9P1W9?
## Output 86

Now take the following molecule into account.
## Input Hi! What's the reported residual activity for COc1ccc2c(c1)c1c3c(c4c5ccccc5n(C)c4c1n2CC(O)CN(C)C)C(=O)NC3=O (centres undefined) on UniProtKB Q9P1W9?
## Output 1

###

# System: ROCK2 (rat)
# Test Protocol: radiometric filter-binding kinase assay
# Experimental Setup: compound 1.0 µM; accession and sequence are those of the human protein
Criterion: residual activity strictly under 80%. Met: t. Not met: f.

Example entries and their recorded answers appear below.
## Input Take the compound NCC(=O)Nc1ccc(-n2nc(C(F)(F)F)cc2-c2ccc3c(ccc4ccccc43)c2)cc1 and say whether its residual activity is less than 80%.
## Output f

## Input Take the compound Nc1cccc2c1CN(C1CCC(=O)NC1=O)C2=O (stereo not given) and say whether its residual activity is less than 80%.
## Output f

## Input Take the compound CNC(=O)C1[C@H]2O[C@@](C)([C@@H]1N)n1c3ccccc3c3c4c(c5c6ccccc6n2c5c31)C(=O)NC4 (stereo not given in full) and say whether its residual activity is less than 80%.
## Output t

Continuing:
## Input Take the compound COc1ccc(N(C(=O)Nc2c(C)cccc2C)c2cc(Nc3ccc(N4CCN(C)CC4)cc3)ncn2)c(OC)c1 and say whether its residual activity is less than 80%.
## Output t

###

# Tested On: FGFR1 (human) (UniProt P11362)
# Sequence (P11362 whole entry, looked up): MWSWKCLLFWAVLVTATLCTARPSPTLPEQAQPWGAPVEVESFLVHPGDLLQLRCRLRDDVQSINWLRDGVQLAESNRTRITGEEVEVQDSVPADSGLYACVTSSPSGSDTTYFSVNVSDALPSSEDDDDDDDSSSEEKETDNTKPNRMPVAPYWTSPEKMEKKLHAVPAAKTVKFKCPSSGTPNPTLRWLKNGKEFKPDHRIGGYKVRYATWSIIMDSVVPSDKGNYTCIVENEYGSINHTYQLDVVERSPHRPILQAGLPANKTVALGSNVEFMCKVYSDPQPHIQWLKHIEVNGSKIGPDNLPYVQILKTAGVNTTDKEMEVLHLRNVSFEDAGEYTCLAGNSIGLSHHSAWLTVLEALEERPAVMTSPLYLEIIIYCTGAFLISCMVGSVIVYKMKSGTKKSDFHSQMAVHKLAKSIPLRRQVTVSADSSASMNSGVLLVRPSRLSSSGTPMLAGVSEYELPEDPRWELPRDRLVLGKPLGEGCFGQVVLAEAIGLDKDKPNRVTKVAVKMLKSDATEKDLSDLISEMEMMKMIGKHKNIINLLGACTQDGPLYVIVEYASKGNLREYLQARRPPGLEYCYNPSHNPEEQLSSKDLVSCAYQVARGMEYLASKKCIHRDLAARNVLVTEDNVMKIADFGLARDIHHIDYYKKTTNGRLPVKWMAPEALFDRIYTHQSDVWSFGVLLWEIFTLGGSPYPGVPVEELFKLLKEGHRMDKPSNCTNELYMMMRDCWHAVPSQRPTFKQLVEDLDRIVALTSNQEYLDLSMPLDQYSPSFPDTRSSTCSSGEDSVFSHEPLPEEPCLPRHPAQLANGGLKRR
# Test Protocol: radiometric filter-binding kinase assay
# Experimental Setup: compound 10.0 µM
Measurement Label: residual activity (%)
# unit: % | format: bare number

## Input Look up residual activity for this molecule: CCCCCc1ccc(/C=C/[C@H](O)[C@@H](CO)NC)cc1
## Output 104

## Input Look up residual activity for this molecule: NC(=O)c1ccc(-c2ccc(Oc3cncc4sc(-c5nn[nH]n5)cc34)cc2)cc1
## Output 61

## Input Look up residual activity for this molecule: CC1=C(CO)C(=O)O[C@@H]([C@@H](C)[C@H]2CC[C@H]3[C@@H]4C[C@H]5O[C@]56[C@@H](O)C=CC(=O)[C@]6(C)C4CC[C@]23C)C1 (some centres undefined)
## Output 94

Continuing:
## Input Look up residual activity for this molecule: CNc1nc(-c2ccc3c(N)n[nH]c3c2)cc(N2C[C@@H](C(=O)NC3CCCCC3)CC[C@H]2C)n1
## Output 88

## Input Look up residual activity for this molecule: CC(C)(C#N)c1ccc(N2C(=O)OCc3cnc4ccc(-c5cnc6ccccc6c5)cc4c32)cc1
## Output 93

## Input Look up residual activity for this molecule: COc1cc(C(=O)N2CCOCC2)c(F)cc1Nc1ncc(C(F)(F)F)c(NC2CC2)n1
## Output 104

## Input Look up residual activity for this molecule: CCCC(CCC)C(=O)O
## Output 104

## Input Look up residual activity for this molecule: FC(F)(F)c1ccc(-c2ccc(Oc3cncc4sc(-c5nn[nH]n5)cc34)cc2)cc1
## Output 76

## Input Look up residual activity for this molecule: O=c1c(O)c(-c2ccc(O)c(O)c2)oc2cc(O)c(O)c(O)c12
## Output 14

###

# Tested On: UniProt:P12931
# Sequence (P12931 whole entry, looked up): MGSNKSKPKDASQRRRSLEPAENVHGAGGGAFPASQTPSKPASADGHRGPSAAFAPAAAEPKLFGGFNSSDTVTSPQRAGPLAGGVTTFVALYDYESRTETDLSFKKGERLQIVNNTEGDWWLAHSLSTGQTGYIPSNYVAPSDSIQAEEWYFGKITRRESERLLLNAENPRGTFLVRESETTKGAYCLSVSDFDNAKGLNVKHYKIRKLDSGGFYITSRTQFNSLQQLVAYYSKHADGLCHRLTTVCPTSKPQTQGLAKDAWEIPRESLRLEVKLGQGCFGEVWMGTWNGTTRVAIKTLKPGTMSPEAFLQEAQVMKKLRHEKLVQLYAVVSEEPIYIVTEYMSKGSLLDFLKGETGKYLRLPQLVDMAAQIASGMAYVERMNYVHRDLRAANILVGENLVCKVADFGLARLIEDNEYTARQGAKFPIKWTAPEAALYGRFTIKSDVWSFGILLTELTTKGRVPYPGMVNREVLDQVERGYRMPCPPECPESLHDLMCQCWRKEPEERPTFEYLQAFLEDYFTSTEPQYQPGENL
# Test Protocol: radiometric filter-binding kinase assay
# Experimental Setup: compound 0.1 µM
Measurement Label: residual activity (%)
# unit: % | format: bare number

## Input Look up residual activity for this compound: NC(=O)c1cc2c(-c3cccc(-c4ccccc4)c3)cnc(N)c2s1
## Output 100

## Input Look up residual activity for this compound: COc1cc(O)c2c(c1)[C@H]1OC1C[C@H](O)[C@H](O)C(=O)/C=C\C[C@H](C)OC2=O (stereo partly drawn)
## Output 91

Now take the following compound into account.
## Input Look up residual activity for this compound: O=C(Nc1nc2cc(C(F)(F)F)cc(NC3CC3)n2n1)c1cccnc1
## Output 107

###

# Tested On: UniProt:P05129
# Test Protocol: radiometric filter-binding kinase assay
# Experimental Setup: compound 0.1 µM
Measurement Label: residual activity (%)
# unit: % | format: bare number

Example compounds with recorded residual activity:
## Input Look up residual activity for this compound: Cc1cc(NC(=O)c2cccc(NC(=O)/C=C/CN(C)C)c2)ccc1Nc1nccc(-c2cccnc2)n1
## Output 92

## Input Look up residual activity for this compound: C=CC(=O)N1CCC[C@@H](n2nc(-c3ccc(Oc4ccccc4)cc3)c3c(N)ncnc32)C1
## Output 85

## Input Look up residual activity for this compound: c1ccc2c(-c3cnn4cc(-c5ccc(N6CCNCC6)cc5)cnc34)ccnc2c1
## Output 99

## Input Look up residual activity for this compound: COc1cc(O)c2c(c1)[C@H]1OC1C[C@H](O)[C@H](O)C(=O)/C=C\C[C@H](C)OC2=O (stereo not given in full)
## Output 109

## Input Look up residual activity for this compound: COc1cc(O)c2c(c1)/C=C/C[C@H](O)[C@H](O)C(=O)/C=C\C[C@H](C)OC2=O
## Output 87

## Input Look up residual activity for this compound: NC(=O)c1cc(-c2ccnc(NC3CCCCC3)c2)nc(N2CCNCC2)c1
## Output 106

## Input Look up residual activity for this compound: CN1CCN(CCOc2cc(OC3CCOCC3)c3c(Nc4c(Cl)ccc5c4OCO5)ncnc3c2)CC1
## Output 103

## Input Look up residual activity for this compound: O=C(N[C@@H](COc1ccc2[nH]c(=O)[nH]c2c1)c1ccccc1)c1cccn(Cc2ccc(F)c(F)c2)c1=O
## Output 91

Continuing:
## Input Look up residual activity for this compound: Cc1ccc(-c2ccc3c(ccc4sc5c(c43)NC[C@@H](C)NC5=O)n2)cn1
## Output 118

## Input Look up residual activity for this compound: COc1ccc(N(C(=O)Nc2c(C)cccc2C)c2cc(Nc3ccc(N4CCN(C)CC4)cc3)ncn2)c(OC)c1
## Output 104
